# targetOrTestSystem: T1, recombinant human CD63 extracellular loop 2 expressed with a C-terminal Myc-Myc-hexahistidine (human)
# T1 construct: also called hCD63 EC loop 2-MMH; human CD63 EC loop 2-MMH
# T1 sequence (chain, as listed by the source limits assumed): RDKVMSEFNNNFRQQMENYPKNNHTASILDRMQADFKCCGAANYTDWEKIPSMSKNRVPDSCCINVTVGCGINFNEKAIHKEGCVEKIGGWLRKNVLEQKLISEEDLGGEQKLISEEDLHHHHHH
# assayInfo: SPR Biacore, mAb captured, 25C
Can you tell me log10 kon for the items I'm about to list?
All values: base-10 log of kon in M⁻¹ s⁻¹.

Study these solved cases before continuing.
H1M12451N (antibody, V domains shown) VH: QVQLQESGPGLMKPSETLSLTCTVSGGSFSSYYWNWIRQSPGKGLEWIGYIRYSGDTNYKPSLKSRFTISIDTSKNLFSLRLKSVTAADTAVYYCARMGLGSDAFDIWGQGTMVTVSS VL: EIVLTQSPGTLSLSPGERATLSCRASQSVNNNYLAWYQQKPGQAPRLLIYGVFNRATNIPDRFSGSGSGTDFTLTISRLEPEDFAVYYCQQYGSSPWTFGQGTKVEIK	4.93
H2M12385N (antibody, V domains shown, also called H2bM12385N; H2bM12385) VH: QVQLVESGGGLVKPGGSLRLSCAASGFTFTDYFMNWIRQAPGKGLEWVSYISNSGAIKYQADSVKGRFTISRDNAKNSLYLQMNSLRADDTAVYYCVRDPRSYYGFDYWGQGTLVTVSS VL: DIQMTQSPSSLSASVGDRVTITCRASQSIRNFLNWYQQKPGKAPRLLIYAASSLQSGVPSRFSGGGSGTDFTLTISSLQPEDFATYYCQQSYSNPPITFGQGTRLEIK	5.51
H1M12388N (antibody, V domains shown) VH: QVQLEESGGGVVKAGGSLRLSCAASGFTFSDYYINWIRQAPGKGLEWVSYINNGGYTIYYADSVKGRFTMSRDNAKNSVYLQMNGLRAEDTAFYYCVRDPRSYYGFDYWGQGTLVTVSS VL: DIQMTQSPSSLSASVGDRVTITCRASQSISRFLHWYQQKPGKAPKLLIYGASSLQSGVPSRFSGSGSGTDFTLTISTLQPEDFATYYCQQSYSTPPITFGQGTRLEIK	5.91

Record log10 kon for all entries; do not skip any.
1. H2M12452N (antibody, V domains shown, also called H2aM12452N) VH: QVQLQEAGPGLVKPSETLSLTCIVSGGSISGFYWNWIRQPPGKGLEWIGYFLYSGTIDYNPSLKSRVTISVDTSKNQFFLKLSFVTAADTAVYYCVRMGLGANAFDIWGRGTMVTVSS VL: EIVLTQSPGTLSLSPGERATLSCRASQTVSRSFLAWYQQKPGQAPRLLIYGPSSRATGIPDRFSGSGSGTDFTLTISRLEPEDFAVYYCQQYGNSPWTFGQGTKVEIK
2. H2M12395N (antibody, V domains shown, also called H2aM12395N) VH: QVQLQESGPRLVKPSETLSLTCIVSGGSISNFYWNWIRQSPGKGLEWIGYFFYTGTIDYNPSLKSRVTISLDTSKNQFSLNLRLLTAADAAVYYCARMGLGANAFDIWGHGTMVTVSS VL: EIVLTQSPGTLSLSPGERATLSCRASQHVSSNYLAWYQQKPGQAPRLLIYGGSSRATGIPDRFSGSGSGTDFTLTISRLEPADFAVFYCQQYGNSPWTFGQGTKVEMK

1. 4.91
2. 5.22
